Origin of values: paper PMC4127636

I'd appreciate it if you could supply kcat values for the items below.
substrate: CC(=O)Oc1cccc2ccccc12; test: spectrophotometric esterase assay; format: biochemical, Oleispira antarctica; conditions: 0.4 M NaCl, 50 mM potassium Hepes pH 8.0, 20°C
Answers without a unit are incomplete; give the number and then its unit.

GET /value?item= OLEI01171 (Oleispira antarctica; S59A) (protein) MSIENLSSNKSFGGWHKQYSHVSNTLNCAMRFAIYLPPQASTGAKVPVLYWLSGLTCADENFMQKAGAQRLAAELGIAIVAPDTSPRGEGVADDEGYDLGQGAGFYVNATQAPWNRHYQMYDYVVNELPELIESMFPVSDKRAIAGHSMGGHGALTIALRNPERYQSVSAFSPINNPVNCPWGQKAFTAYLGKDTDTWREYDASLLMRAAKQYVPALVDQGEADNFLAEQLKPEVLEAAASSNNYPLELRSHEGYDHSYYFIASFIEDHLRFHSNYLNA &field=kcat returns 0.8 s⁻¹

GET /value?item= OLEI01171 (Oleispira antarctica; N226A) (protein) MSIENLSSNKSFGGWHKQYSHVSNTLNCAMRFAIYLPPQASTGAKVPVLYWLSGLTCSDENFMQKAGAQRLAAELGIAIVAPDTSPRGEGVADDEGYDLGQGAGFYVNATQAPWNRHYQMYDYVVNELPELIESMFPVSDKRAIAGHSMGGHGALTIALRNPERYQSVSAFSPINNPVNCPWGQKAFTAYLGKDTDTWREYDASLLMRAAKQYVPALVDQGEADAFLAEQLKPEVLEAAASSNNYPLELRSHEGYDHSYYFIASFIEDHLRFHSNYLNA &field=kcat returns 1.7 s⁻¹

GET /value?item= OLEI01171 (Oleispira antarctica; C58A) (protein) MSIENLSSNKSFGGWHKQYSHVSNTLNCAMRFAIYLPPQASTGAKVPVLYWLSGLTASDENFMQKAGAQRLAAELGIAIVAPDTSPRGEGVADDEGYDLGQGAGFYVNATQAPWNRHYQMYDYVVNELPELIESMFPVSDKRAIAGHSMGGHGALTIALRNPERYQSVSAFSPINNPVNCPWGQKAFTAYLGKDTDTWREYDASLLMRAAKQYVPALVDQGEADNFLAEQLKPEVLEAAASSNNYPLELRSHEGYDHSYYFIASFIEDHLRFHSNYLNA &field=kcat returns 0.9 s⁻¹

GET /value?item= OLEI01171 (Oleispira antarctica; K66A) (protein) MSIENLSSNKSFGGWHKQYSHVSNTLNCAMRFAIYLPPQASTGAKVPVLYWLSGLTCSDENFMQAAGAQRLAAELGIAIVAPDTSPRGEGVADDEGYDLGQGAGFYVNATQAPWNRHYQMYDYVVNELPELIESMFPVSDKRAIAGHSMGGHGALTIALRNPERYQSVSAFSPINNPVNCPWGQKAFTAYLGKDTDTWREYDASLLMRAAKQYVPALVDQGEADNFLAEQLKPEVLEAAASSNNYPLELRSHEGYDHSYYFIASFIEDHLRFHSNYLNA &field=kcat returns 1.2 s⁻¹

GET /value?item= OLEI01171 (Oleispira antarctica; N226K) (protein) MSIENLSSNKSFGGWHKQYSHVSNTLNCAMRFAIYLPPQASTGAKVPVLYWLSGLTCSDENFMQKAGAQRLAAELGIAIVAPDTSPRGEGVADDEGYDLGQGAGFYVNATQAPWNRHYQMYDYVVNELPELIESMFPVSDKRAIAGHSMGGHGALTIALRNPERYQSVSAFSPINNPVNCPWGQKAFTAYLGKDTDTWREYDASLLMRAAKQYVPALVDQGEADKFLAEQLKPEVLEAAASSNNYPLELRSHEGYDHSYYFIASFIEDHLRFHSNYLNA &field=kcat returns 3 s⁻¹

GET /value?item= OLEI01171 (Oleispira antarctica; S173A) (protein) MSIENLSSNKSFGGWHKQYSHVSNTLNCAMRFAIYLPPQASTGAKVPVLYWLSGLTCSDENFMQKAGAQRLAAELGIAIVAPDTSPRGEGVADDEGYDLGQGAGFYVNATQAPWNRHYQMYDYVVNELPELIESMFPVSDKRAIAGHSMGGHGALTIALRNPERYQSVSAFAPINNPVNCPWGQKAFTAYLGKDTDTWREYDASLLMRAAKQYVPALVDQGEADNFLAEQLKPEVLEAAASSNNYPLELRSHEGYDHSYYFIASFIEDHLRFHSNYLNA &field=kcat returns 5.3 s⁻¹

GET /value?item= OLEI01171 (Oleispira antarctica; Y98A) (protein) MSIENLSSNKSFGGWHKQYSHVSNTLNCAMRFAIYLPPQASTGAKVPVLYWLSGLTCSDENFMQKAGAQRLAAELGIAIVAPDTSPRGEGVADDEGADLGQGAGFYVNATQAPWNRHYQMYDYVVNELPELIESMFPVSDKRAIAGHSMGGHGALTIALRNPERYQSVSAFSPINNPVNCPWGQKAFTAYLGKDTDTWREYDASLLMRAAKQYVPALVDQGEADNFLAEQLKPEVLEAAASSNNYPLELRSHEGYDHSYYFIASFIEDHLRFHSNYLNA &field=kcat returns 2.9 s⁻¹
